Ref: the supplement of paper PMC6555819

# Test system: THRa homodimer (NR concentration 90 nM)
# test.summary: PBM binding z-score (relative to random genomic background probes); higher = stronger binding; sequences stand for … in GC…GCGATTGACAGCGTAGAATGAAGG
Measured PBM binding z-score accompanies every entry in the list below.

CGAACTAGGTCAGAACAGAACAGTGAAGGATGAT = -0.073
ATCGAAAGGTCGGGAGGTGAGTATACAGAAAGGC = 0.967
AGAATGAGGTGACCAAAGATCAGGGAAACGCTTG = 0.878
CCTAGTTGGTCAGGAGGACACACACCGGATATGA = 1.43
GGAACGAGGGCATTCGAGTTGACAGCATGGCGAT = -0.733

Give the measured PBM binding z-score of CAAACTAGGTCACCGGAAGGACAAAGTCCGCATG .
2.12

Next sequence up: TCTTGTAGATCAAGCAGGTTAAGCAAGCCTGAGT
-0.299

Also need CGAACTAGGTCATCCAAGACAGTGAATACATTGA , thanks.
0.947

// same read-out, input: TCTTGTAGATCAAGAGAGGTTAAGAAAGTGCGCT
-0.932

----------
Documented PBM binding z-score across a set of sequences
# Test system: RARb homodimer (NR concentration 270 nM)
# test.summary: PBM binding z-score (relative to random genomic background probes); higher = stronger binding; sequences stand for … in GC…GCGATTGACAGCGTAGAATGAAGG
// response body must contain only the number

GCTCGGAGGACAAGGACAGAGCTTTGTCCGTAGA = 0.139

Sample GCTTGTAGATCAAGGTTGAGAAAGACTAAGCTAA — what was its PBM binding z-score?
-0.753

How about this sequence: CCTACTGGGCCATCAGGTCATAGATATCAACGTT
2.46

----------
Below: a set of entries, each annotated with reported PBM binding z-score.
# System: PPARg:RXRa IVT, anti-PPARg (NR concentration 270 nM, RXRa partner concentration 90 nM)
# test.summary: PBM binding z-score (relative to random genomic background probes); higher = stronger binding; sequences stand for … in GC…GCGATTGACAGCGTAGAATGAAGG
API note: the answer field is a bare number with no unit suffix.

Field: example entries. Status: answers known.
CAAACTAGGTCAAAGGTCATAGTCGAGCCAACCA = 9.39
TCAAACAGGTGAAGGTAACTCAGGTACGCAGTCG = 1.6
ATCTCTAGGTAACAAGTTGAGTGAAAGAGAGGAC = 2.71

Any idea what PBM binding z-score was measured for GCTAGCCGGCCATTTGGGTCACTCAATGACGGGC ?
1.18

Field entry: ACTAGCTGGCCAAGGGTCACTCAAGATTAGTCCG
1.86

----------
# Tested on: FXR:RXRa (NR concentration 270 nM, RXRa partner concentration 90 nM)
# test.summary: PBM binding z-score (relative to random genomic background probes); higher = stronger binding; sequences stand for … in GC…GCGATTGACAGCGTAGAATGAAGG
Assign Fulfilled to entries whose PBM binding z-score meets or exceeds 2; assign Not fulfilled to the rest.

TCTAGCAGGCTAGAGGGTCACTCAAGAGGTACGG = Not fulfilled
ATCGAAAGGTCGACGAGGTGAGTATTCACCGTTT = Fulfilled
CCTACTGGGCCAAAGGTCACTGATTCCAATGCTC = Fulfilled
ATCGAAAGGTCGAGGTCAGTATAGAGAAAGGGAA = Fulfilled

# check: PBM binding z-score of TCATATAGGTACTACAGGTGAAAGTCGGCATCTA is greater than or equal to 2
Not fulfilled

Record: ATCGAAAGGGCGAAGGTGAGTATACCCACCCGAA
Not fulfilled

And what about the sequence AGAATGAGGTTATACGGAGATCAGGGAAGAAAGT ?
Fulfilled

Also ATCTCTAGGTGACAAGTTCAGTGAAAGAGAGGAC , if possible.
Not fulfilled

Field entry: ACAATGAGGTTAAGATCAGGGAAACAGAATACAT
Fulfilled

Next entry: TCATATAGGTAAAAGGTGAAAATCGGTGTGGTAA
Fulfilled

What do you get for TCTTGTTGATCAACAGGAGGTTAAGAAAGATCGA ?
Not fulfilled

Lookup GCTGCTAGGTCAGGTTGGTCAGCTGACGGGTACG
Not fulfilled

Queued: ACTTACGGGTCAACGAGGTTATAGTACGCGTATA
Fulfilled

// same read-out, input: AGAATGAGGTTACTAAGATCAGGGAATTGCGGTC
Not fulfilled

Similarly, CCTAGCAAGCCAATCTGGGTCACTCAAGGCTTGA ?
Not fulfilled

Entry to check: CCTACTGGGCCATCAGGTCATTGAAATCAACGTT
Not fulfilled

How about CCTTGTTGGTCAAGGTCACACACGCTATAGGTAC ?
Fulfilled

Lookup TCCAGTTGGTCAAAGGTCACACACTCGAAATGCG
Fulfilled

Can you check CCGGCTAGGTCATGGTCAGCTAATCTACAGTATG next?
Fulfilled

Ok, now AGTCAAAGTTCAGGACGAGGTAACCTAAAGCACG
Fulfilled

Repeat for the following sequence: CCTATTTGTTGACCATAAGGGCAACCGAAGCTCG
Not fulfilled

Now this one: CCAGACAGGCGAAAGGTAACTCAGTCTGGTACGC
Not fulfilled

Would you mind doing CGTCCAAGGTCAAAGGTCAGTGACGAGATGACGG as well?
Fulfilled

----------
# Tested on: PPARg homodimer (NR concentration 180 nM)
# test.summary: PBM binding z-score (relative to random genomic background probes); higher = stronger binding; sequences stand for … in GC…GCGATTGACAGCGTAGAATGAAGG
Classification field: yes = PBM binding z-score at or over -0.4; no = PBM binding z-score under -0.4.

Answered examples (6):
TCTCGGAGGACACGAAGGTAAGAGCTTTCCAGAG = no
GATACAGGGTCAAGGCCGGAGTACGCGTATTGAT = yes
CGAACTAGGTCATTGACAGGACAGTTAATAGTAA = yes
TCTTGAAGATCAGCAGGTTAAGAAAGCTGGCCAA = no
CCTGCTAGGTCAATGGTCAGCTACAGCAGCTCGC = yes
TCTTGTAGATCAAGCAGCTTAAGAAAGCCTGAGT = yes

// inclusive: PBM binding z-score at least -0.4? input: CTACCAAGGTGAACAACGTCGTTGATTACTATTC
no

What do you have for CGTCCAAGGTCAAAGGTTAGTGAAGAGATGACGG ?
yes

----------
# System: VDR homodimer (NR concentration 270 nM)
# test.summary: PBM binding z-score (relative to random genomic background probes); higher = stronger binding; sequences stand for … in GC…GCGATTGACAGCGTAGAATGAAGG
Each record here notes measured PBM binding z-score.
No unit in the answer, please; the number alone is enough.

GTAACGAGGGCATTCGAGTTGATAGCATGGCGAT = 3.97
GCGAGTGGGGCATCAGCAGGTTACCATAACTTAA = -0.291
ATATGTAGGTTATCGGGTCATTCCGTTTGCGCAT = 3.21
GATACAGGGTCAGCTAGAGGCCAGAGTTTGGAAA = 1.17
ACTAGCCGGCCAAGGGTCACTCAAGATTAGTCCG = 0.509

Given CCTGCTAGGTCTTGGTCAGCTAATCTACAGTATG , state its recorded PBM binding z-score.
-0.656

----------
# Tested on: RXRa homodimer (NR concentration 180 nM)
# test.summary: PBM binding z-score (relative to random genomic background probes); higher = stronger binding; sequences stand for … in GC…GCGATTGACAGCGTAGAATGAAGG
Output 1.0 for PBM binding z-score not less than 1; output 0.0 otherwise.

Some entries whose results are on file:
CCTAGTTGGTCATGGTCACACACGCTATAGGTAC = 0.0
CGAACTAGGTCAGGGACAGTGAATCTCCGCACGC = 1.0
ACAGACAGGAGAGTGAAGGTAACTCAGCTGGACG = 0.0
AGAACGAGGGCACGCTTAGTTGATAGCAGAGTAG = 1.0

Read the next record carefully.
Item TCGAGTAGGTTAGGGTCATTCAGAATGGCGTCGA with PBM binding z-score of 1 or above?
1.0

----------
# Tested on: THRa:RXRa (NR concentration 90 nM, RXRa partner concentration 90 nM)
# test.summary: PBM binding z-score (relative to random genomic background probes); higher = stronger binding; sequences stand for … in GC…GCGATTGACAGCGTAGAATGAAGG
Label rule, in plain words: PBM binding z-score of 0.6 and up is Condition met, under 0.6 is Condition not met.

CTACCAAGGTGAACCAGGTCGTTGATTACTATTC = Condition met
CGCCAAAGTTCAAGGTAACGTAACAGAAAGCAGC = Condition met
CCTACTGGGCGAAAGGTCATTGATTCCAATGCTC = Condition met
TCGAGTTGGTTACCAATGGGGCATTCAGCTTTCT = Condition not met
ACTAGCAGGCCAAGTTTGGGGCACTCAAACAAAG = Condition not met
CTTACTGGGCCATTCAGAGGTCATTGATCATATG = Condition met

Reported PBM binding z-score at or above 0.6? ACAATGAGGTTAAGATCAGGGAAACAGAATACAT
Condition met

Can you handle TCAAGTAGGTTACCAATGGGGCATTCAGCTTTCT next?
Condition not met
